Record form. Attribute: GI50. Fill in for each entry.
- Tested on: SW-620
- protocol.notes: NCI tumour cell line growth inhibition, 48 h
Calls of active or inactive are those of the source. Rule as the data show it: active = GI50 up to about 1.1 µM and inactive = higher. Starred links: 1 amine or outer side, 2 acyl side, 3 side chain; linkers in the order of their positions; H or OH if unused. Non-standard residues stand in square brackets, D forms with d. Residues, ends and D or L forms follow the SMILES beside them. X35 = C=CCC(O[*:1])C(=O)[*:2]; NMeV = CN[CH](C(=O)O)C(C)C; NMeA = CN[CH](C)C(=O)O; βAla = NCCC(=O)O

{"columns": ["molecule", "endpoint.result"],
 "data": [
  ["CN1C=Cc2nccc3cc4c(c1c23)OCO4", "3.64 µM (inactive)"],
  ["Cc1nc2c(Br)cc(Br)cc2c(=O)n1-c1ccccc1N", "44.6 µM (inactive)"],
  ["CN(C)c1ccc(C2CC(=O)C(C#N)=C(c3ccccc3)NN2C)cc1 (centres undefined)", "3.97 µM (inactive)"]
]}

# evaluate next
In plain terms, C=CCC1OC(=O)CCNC(=O)C(C)N(C)C(=O)C(C(C)C)N(C)C(=O)C(C(C)CC)NC(=O)C2CCCN2C1=O (centres undefined) (cyclo([X35]PI[NMeV][NMeA][βAla]); configuration not given here) has a documented GI50 of 6.64 µM (inactive)

* * *

- Test system: CAKI-1
- protocol.notes: NCI tumour cell line growth inhibition, 48 h
The source made the active and inactive calls. Cut-off read from the data, not from the text of the source: active = GI50 up to about 1.1 µM and inactive = higher. Square brackets hold non-standard residues; d marks the D form. Peptide text beside a SMILES is read from it. * marks the point of attachment. Boc = CC(C)(C)OC(=O)*; Lac = C[CH](O)C(=O)O; OBn = c1ccc(CO*)cc1
measurement.kind: GI50

{"columns": ["compound", "assay.target", "endpoint.result"],
 "data": [
  ["C[N+](C)(C)CC(=O)N/N=C(/C(=O)Nc1ccc(Br)cc1)C1C(=O)NC(=O)NC1=O", "CAKI-1", "> 100 µM (inactive)"],
  ["CC(OC(=O)C(Cc1ccccc1)NC(=O)C(Cc1ccccc1)NC(=O)OC(C)(C)C)C(=O)OCc1ccccc1 (stereo not drawn) (Boc-Phe-Phe-[Lac]-OBn; configuration not given here)", "CAKI-1", "> 100 µM (inactive)"],
  ["COc1ccc(/C=C/C(=O)c2nc3ccccc3[nH]2)cc1", "CAKI-1", "33.3 µM (inactive)"]
]}

Record O=C1CC[C@H](NC(=O)Cc2ccccc2)C(=O)N1 [ANTINEOPLASTON A10] . Reported GI50: > 1250 µM (inactive)

* * *

- System: SNB-75
- protocol.notes: NCI tumour cell line growth inhibition, 48 h
Active and inactive are the calls of the source. No stated cut-off is given here; in the data, active = GI50 up to about 1.1 µM and inactive = higher.
Hello, when you answer, please use one of the following outcomes: active, inactive

Look over these answered cases.
{"columns": ["compound", "label.class"],
 "data": [
  ["O=C1/C(=C/c2ccc(Cl)cc2)CCC1CNc1ccc(Cl)cc1 (stereo unspecified)", "inactive"],
  ["CCN(CC)CCC(=O)N1CCc2c([nH]c3ccccc23)C1c1cccnc1 (stereo unspecified)", "inactive"],
  ["FC(F)(F)c1cc(N(C2c3ccccc3C=Cc3ccccc32)P(Cl)Cl)cc(C(F)(F)F)c1", "inactive"],
  ["COc1ccc(-c2coc3cc(O)ccc3c2=O)cc1", "inactive"],
  ["CC1C(=O)N=C2C(=CN(Cc3ccccc3)c3ccccc32)C(=O)N1C (stereo unspecified)", "inactive"],
  ["CC[N+](C)(CC)CCN1C(=O)c2ccccc2S1(=O)=O", "inactive"],
  ["Cn1c(=S)c2nc(SCCN3CCCC3)[nH]c2n(C)c1=O", "inactive"],
  ["CN(C)C=C1C(=O)N(C)C(=O)N(C)C1=O", "inactive"]
]}

Per the assay record, what outcome was assigned to CN1C(=O)C(C(=O)Nc2ccccn2)C2C[C@@]1(C)Oc1ccccc12 (stereo partly specified) ? inactive

Fill in: this test's call for NCC1OC(OC2C(N)CC(N)C(O)C2OC2OC(CO)C(O)C2O)C(N)C(O)C1O (stereo unspecified) is ___ inactive

Dear colleague, could you share the recorded outcome for Cc1c2cc[n+](C)cc2c(C)c2c1[nH]c1ccc(O)c(OCC(F)(F)F)c12 when you have a moment? active

For COc1cccc(/C=C/C2=NN(c3cccc(S(=O)(=O)O)c3)C3(C2)SCC(=O)N3c2nc3ccccc3s2)c1 (stereo unspecified) , which call appears in the assay record? inactive

// param item: C=CCN1C(=O)CNC1=S ; yields the recorded call inactive

Each compound tested received a call. Report the one for c1ccc(COC2NCCN2Cc2ccccc2)cc1 (stereo unspecified) . inactive

// param item: COC(=O)NCCc1n[nH]c2c1C(=O)C=C(OC)C2=O ; yields the recorded call inactive

Hi, sorry to bother you, what did the test record for Cc1c(N/C=C(\C#N)C(=O)c2ccc(Cl)cc2)c(=O)n(-c2ccccc2)n1C ? inactive

Called result for CC1=CCC23C(C1)OC(Br)(C=CC2(C)O)C3(C)C (stereo unspecified) inactive

Which outcome was entered for the compound Cn1c(=O)c(C#N)c(O)c2cc3ccccc3nc21 in this test? inactive

Outcome? C=CC(C)(C)C1(CC(OC)OC)C(=O)N(C)c2ccccc21 (stereo unspecified) inactive

Hey, what did the test say about CCc1n[nH]c(=O)n1/N=C/c1c(O)ccc2ccccc12 ? inactive

Each compound tested received a call. Report the one for O=C(/C=C1\NC(=O)c2ccccc2N1)c1ccncc1 . inactive

* * *

- Test system: RXF 631
- protocol.notes: NCI tumour cell line growth inhibition, 48 h
Activity calls are given as the source filed them. No stated cut-off is given here; in the data, active = GI50 up to about 1.1 µM and inactive = higher.
Thanks in advance; please answer with one of these: active, inactive

Below, 10 compounds whose answers are already recorded.
{"columns": ["compound", "label.class"],
 "data": [
  ["C[N+](C)(C)CC(=O)NC(=O)N/N=C\\C(CC#N)CN(Cc1ccccc1)Cc1ccccc1 (stereo not given)", "inactive"],
  ["CCCCCCCCC/C=C1\\CCC(CN2CCOCC2)C1=O (stereo not given)", "inactive"],
  ["CN(C)c1ccc(C2CC(=O)C(C#N)=C(c3ccccc3)NN2C)cc1 (stereo not given)", "inactive"],
  ["O=c1nc(NC2CCCCO2)ccn1CCO (stereo not given)", "inactive"],
  ["O=C(C(=O)n1ncc(Cl)c(Cl)c1=O)n1ncc(Cl)c(Cl)c1=O", "inactive"],
  ["CCN(CC)CC(O)CNc1ccc(NCC2CO2)c2c1C(=O)c1ccccc1C2=O (stereo not given)", "active"],
  ["COc1cccc2c1C1=CC(=O)CCC1C(C)(C)O2 (stereo not given)", "inactive"],
  ["Cc1cc(C)c([O-])c(-[n+]2c(-c3ccccc3)cc(-c3ccccc3)cc2-c2ccccc2)c1", "inactive"],
  ["O=C(/C=C/c1ccc(Cl)c(Cl)c1)c1ccc2ccccc2c1", "inactive"],
  ["Cc1c2cc[n+](C)cc2c(C)c2c1[nH]c1ccc(O)c(OCC(F)(F)F)c12", "inactive"]
]}

Any idea what this test logged for NNC(=O)CC(=O)Nc1ccccc1F ? inactive

Lab log entry: CCOC(=O)C(C(O)c1ccc([N+](=O)[O-])cc1)P(=O)(OCC)OCC (stereo not given) — outcome as called in the assay? inactive

Please share the test call associated with O=C(Cc1ccc(F)cc1)NC1=C(Cl)C(=O)c2ccccc2C1=O . inactive

In this assay, the call recorded for COC(=O)CC(C(C(=O)OC)C(=O)OC)N1C(=O)OCC1c1ccccc1 (stereo not given) was what? inactive

Which outcome was assigned to O=C1N[C@H]2[C@H](O)[C@H](O)[C@@H](O)[C@H](O)[C@@H]2c2cc3c(c(O)c21)OCO3 in this test? active

* * *

- System: OVCAR-4
- protocol.notes: NCI tumour cell line growth inhibition, 48 h
Active and inactive are the calls of the source. No stated cut-off is given here; in the data, active = GI50 up to about 1.1 µM and inactive = higher.
Provide the reported GI50 of each item.

{"columns": ["compound", "endpoint.result"],
 "data": [
  ["CCOP(=O)(OCC)/C(=C/c1ccccc1)CC(C)=O", "> 100 µM (inactive)"],
  ["NCC1OC(OC2C(N)CC(N)C(O)C2OC2OC(CO)C(O)C2O)C(N)C(O)C1O (stereo not given)", "> 100 µM (inactive)"],
  ["O=C=NCCCCCCN1C(=O)N2C(c3ccccc3)N(CCCCCCN=C=O)C(=O)N2C1c1ccccc1 (stereo not given)", "> 100 µM (inactive)"]
]}

# map each compound to its GI50
1. N#Cc1c2ccc([N+](=O)[O-])cc2c(=O)n2c1sc1ccc(C(F)(F)F)cc12
2. CN(C)C=C1C(=O)N(C)C(=O)N(C)C1=O

1. > 100 µM (inactive)
2. > 100 µM (inactive)

* * *

- Tested on: HL-60
- protocol.notes: NCI tumour cell line growth inhibition, 48 h
Calls of active or inactive are those of the source. Cut-off read from the data, not from the text of the source: active = GI50 up to about 1.1 µM and inactive = higher.
measurement.kind: GI50

{"columns": ["compound", "endpoint.result"],
 "data": [
  ["Cn1cc2c(=O)n3ncn(-c4ccc(Br)cc4)c3nc2n1", "> 100 µM (inactive)"],
  ["CCN(CC)CCC(=O)N1CCc2c([nH]c3ccccc23)C1c1cccnc1 (stereo not drawn)", "> 100 µM (inactive)"]
]}

Now consider the entry below.
Summary for this compound, O=C1CSC(/C=C/c2ccccc2)N1c1nc2cc3sc(N4C(=O)CSC4/C=C/c4ccccc4)nc3cc2s1 (stereo not drawn) : GI50 is 68.1 µM (inactive)
